relative viability for assorted compounds
system: NCI-H1915; experiment: relative viability (nuclei count vs DMSO), 5 days (fraction); higher = more cells survive; settings: first compound 2.53 µM
Could you respond with only the numeric value?

// worked examples, relative viability included
Nc1cccc2c1CN(C1CCC(=O)NC1=O)C2=O (configuration not stated) [Lenalidomide] + NC(=O)Nc1cc(-c2cccc(F)c2)sc1C(=O)N[C@H]1CCCNC1 [AZD7762] (partner 0.2 µM)    0.739
Nc1cccc2c1CN(C1CCC(=O)NC1=O)C2=O (configuration not stated) [Lenalidomide] + CC(C)C[C@H](NC(=O)[C@H](Cc1ccccc1)NC(=O)c1cnccn1)B(O)O [Bortezomib] (partner 0.002 µM)    1.06
Nc1cccc2c1CN(C1CCC(=O)NC1=O)C2=O (configuration not stated) [Lenalidomide] + COc1cc2c(Oc3ccc(NC(=O)C4(C(=O)Nc5ccc(F)cc5)CC4)cc3F)ccnc2cc1OCCCN1CCOCC1 [Foretinib] (partner 0.25 µM)    1.14

Consider now this further compound.
Please give the measured relative viability for this compound: Nc1cccc2c1CN(C1CCC(=O)NC1=O)C2=O (configuration not stated) [Lenalidomide] + C[C@]1(O)C[C@@H](c2nc(-c3ccc4ccc(-c5ccccc5)nc4c3)c3c(N)nccn32)C1 [Linsitinib] (partner 1 µM)
1.06
